- Target entity: Recombinant ROCK1 (amino acids 1-477) (Homo sapiens)
- Construct: Recombinant ROCK1 (amino acids 1-477); by word order, ROCK1 from Carna Biosciences
- Assay details: ROCK inhibition assay, LANCE Ultra TR-FRET kinase assay (ROCK1)
- Study conditions: 1 μM ATP, 50 nM ULight-CREBtide substrate
- Description: Kinase IC50 was determined through an in vitro assay based on LANCE Ultra TR-FRET (Time-Resolved Fluorescence Resonance Energy Transfer) homogeneous technologies method (Perkin Elmer). […] Compound activities were measured by Envision and IC50s were calculated. […] The reaction was incubated for 1 hour, and the signal was read in Envision in TR-FRET mode (excitation at 320 nm and emission at 615/665 nm). […]
pIC50: −log10 of the molar value.
Let's look at some compounds and their measured pIC50.

Known results for compounds:
Compound	Data value
Cn1nccc1-c1cc2ccn(Cc3cc(F)cc(C(=O)NCCc4cccnc4)c3)c(=O)c2cn1	> 8.00
Cc1nocc1-c1ccc2c(=O)n(Cc3cccc(C(=O)NCC4CCN(CC(F)F)CC4)c3)ccc2c1	6.30 to 7.00
CN1CCC(NC(=O)c2cc(F)cc(Cn3ccc4cc(-c5c[nH]nc5Cl)ncc4c3=O)c2)CC1	> 8.00
CNC(=O)c1cc(F)cc(Cn2cnc3cc(-c4cn[nH]c4C(F)F)ccc3c2=O)c1	7.00 to 7.96
CNC(=O)c1cccc(C(C)n2cnc3cc(-c4cn[nH]c4Cl)ccc3c2=O)c1 (centres unmarked)	7.00 to 7.96
[2H]C([2H])([2H])NC(=O)c1cc(F)cc(Cn2cnc3cc(-c4conc4C)ccc3c2=O)c1	7.00 to 7.96
Cn1nccc1-c1cc2ccn(Cc3cc(F)cc(C(=O)NCC4COC4)c3)c(=O)c2cn1	6.30 to 7.00

Ask: What measured pIC50 goes with `O=C(N[C@H]1CC[C@H](O)CC1)c1cc(F)cc(Cn2ccc3cc(-c4c[nH]nc4C(F)(F)F)ncc3c2=O)c1` ?
Result: 7.00 to 7.96

---

- Target entity: Recombinant ROCK1 (amino acids 1-477) (Homo sapiens, UniProt Q13464)
- Construct: Recombinant ROCK1 (amino acids 1-477); by word order, ROCK1 from Carna Biosciences
- Sequence (Q13464 1-477): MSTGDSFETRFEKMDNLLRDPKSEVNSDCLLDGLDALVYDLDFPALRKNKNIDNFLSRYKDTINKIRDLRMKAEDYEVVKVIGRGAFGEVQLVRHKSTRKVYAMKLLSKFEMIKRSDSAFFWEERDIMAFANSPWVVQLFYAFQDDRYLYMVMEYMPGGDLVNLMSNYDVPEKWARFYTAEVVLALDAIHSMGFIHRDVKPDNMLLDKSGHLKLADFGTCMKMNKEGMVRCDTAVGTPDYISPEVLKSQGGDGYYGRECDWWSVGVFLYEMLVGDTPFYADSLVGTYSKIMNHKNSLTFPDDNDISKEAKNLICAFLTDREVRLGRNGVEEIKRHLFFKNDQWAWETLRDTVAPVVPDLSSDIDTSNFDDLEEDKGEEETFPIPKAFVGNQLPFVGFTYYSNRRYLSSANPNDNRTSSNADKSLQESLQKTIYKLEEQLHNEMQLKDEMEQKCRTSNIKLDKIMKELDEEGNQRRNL
- Assay details: ROCK inhibition assay, LANCE Ultra TR-FRET kinase assay (ROCK1)
- Study conditions: 1 μM ATP, 50 nM ULight-CREBtide substrate
pIC50: −log10 of the molar value.
Let's look at some compounds and their measured pIC50.

Known results for compounds:
Compound	Target entity	Data value
CNC(=O)c1cc(F)cc(Cn2ccc3cc(-c4c[nH]nc4Cl)ncc3c2=O)c1	Recombinant ROCK1 (amino acids 1-477) (Homo sapiens, UniProt Q13464)	> 8.00
O=C(NCC1CCN(C2COC2)CC1)c1cccc(Cn2ccc3cc(N4CCOCC4)ccc3c2=O)c1	Recombinant ROCK1 (amino acids 1-477) (Homo sapiens, UniProt Q13464)	6.30 to 7.00

Ask: What measured pIC50 goes with `O=C(NC1CC1)c1cccc(Cn2ccc3cc(-c4c[nH]nc4C(F)(F)F)ccc3c2=O)c1` ?
Result: 6.30 to 7.00

Ask: What measured pIC50 goes with `Cc1nocc1-c1ccc2c(=O)n(Cc3cccc(C(=O)NCC4COC4)c3)ccc2c1` ?
Result: 7.00 to 7.96

Ask: What measured pIC50 goes with `O=C(Nc1cccc(Cn2ccc3cc(-c4c[nH]nc4C(F)F)ccc3c2=O)c1)C1COC1` ?
Result: 6.30 to 7.00

Ask: What measured pIC50 goes with `Cc1n[nH]cc1-c1cc2ccn(Cc3cc(F)cc(C(=O)NCC4CCN(C)CC4)c3)c(=O)c2cn1` ?
Result: > 8.00

Ask: What measured pIC50 goes with `Cn1ccc(NC(=O)c2cc(F)cc(Cn3ccc4cc(-c5ccnn5C)ccc4c3=O)c2)n1` ?
Result: 7.00 to 7.96

Ask: What measured pIC50 goes with NCC(c1cccc(Cl)c1)n1cnc2cc(-c3ccnc(F)c3)ccc2c1=O (centres unmarked) ?
Result: 7.00 to 7.96

---

Let's look at some molecules and their measured IC50.
- Target entity: Recombinant ROCK1 (amino acids 1-477) (Homo sapiens)
- Construct: Recombinant ROCK1 (amino acids 1-477); by word order, ROCK1 from Carna Biosciences
- Assay details: ROCK inhibition assay, LANCE Ultra TR-FRET kinase assay (ROCK1)
- Study conditions: 1 μM ATP, 50 nM ULight-CREBtide substrate

Known results for molecules:
Molecule	Target entity	IC50
O=C(NCC1COC1)c1cccc(Cn2ccc3cc(-c4c[nH]nc4Cl)ccc3c2=O)c1 [Compound 63]	Recombinant ROCK1 (amino acids 1-477) (Homo sapiens)	11 to 100 nM
O=C(N[C@H]1CC[C@@H](O)CC1)c1cc(F)cc(Cn2ccc3cc(-c4c[nH]nc4Cl)ncc3c2=O)c1 [Compound 262]	Recombinant ROCK1 (amino acids 1-477) (Homo sapiens)	< 10 nM
Cn1nccc1-c1ccc2c(=O)n(Cc3cccc(C(=O)N[C@H]4CC[C@@H](O)CC4)c3)ccc2c1 [Compound 116]	Recombinant ROCK1 (amino acids 1-477) (Homo sapiens)	101 to 500 nM
O=C(NC1CCNCC1)c1cc(F)cc(Cn2ccc3cc(-c4c[nH]nc4C(F)(F)F)ccc3c2=O)c1 [Compound 131]	Recombinant ROCK1 (amino acids 1-477) (Homo sapiens)	< 10 nM
O=C(NCC1CCOCC1)c1cccc(Cn2ccc3cc(-c4c[nH]nc4C(F)(F)F)ccc3c2=O)c1 [Compound 52]	Recombinant ROCK1 (amino acids 1-477) (Homo sapiens)	11 to 100 nM

Ask: What measured IC50 goes with CC(C)N1CCC(CNC(=O)c2cccc(Cn3ccc4cc(N5CCOCC5)ccc4c3=O)c2)CC1 [Compound 223] ?
Result: 101 to 500 nM

Ask: What measured IC50 goes with Cc1nocc1-c1ccc2c(=O)n(Cc3cccc(C(=O)NCC4CCN(C(C)C)CC4)c3)ccc2c1 [Compound 81] ?
Result: 101 to 500 nM

---

- Target entity: Recombinant ROCK2 (amino acids 5-554) (Homo sapiens)
- Construct: ROCK2 (amino acids 5-554); by word order, ROCK2 from SignalChem
- Sequence (O75116 5-554): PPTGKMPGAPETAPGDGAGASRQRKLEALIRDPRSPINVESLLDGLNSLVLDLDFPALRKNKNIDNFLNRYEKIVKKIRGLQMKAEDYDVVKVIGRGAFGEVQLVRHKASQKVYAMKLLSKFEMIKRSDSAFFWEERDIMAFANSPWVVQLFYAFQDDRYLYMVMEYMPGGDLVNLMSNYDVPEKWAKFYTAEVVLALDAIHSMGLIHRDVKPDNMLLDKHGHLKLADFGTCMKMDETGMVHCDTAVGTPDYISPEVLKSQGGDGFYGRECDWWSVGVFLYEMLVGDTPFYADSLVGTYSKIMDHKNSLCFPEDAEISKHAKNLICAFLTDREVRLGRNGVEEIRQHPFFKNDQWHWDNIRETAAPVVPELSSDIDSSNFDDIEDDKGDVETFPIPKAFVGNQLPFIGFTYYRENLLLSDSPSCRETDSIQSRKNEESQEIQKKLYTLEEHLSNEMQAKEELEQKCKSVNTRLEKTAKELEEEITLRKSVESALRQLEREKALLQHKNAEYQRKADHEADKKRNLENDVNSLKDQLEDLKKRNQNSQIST
- Assay details: ROCK inhibition assay, LANCE Ultra TR-FRET kinase assay (ROCK2)
- Study conditions: 4 μM ATP, 50 nM ULight-CREBtide substrate
pIC50: −log10 of the molar value.
Assay metric: pIC50

Known results for molecules:
Nc1cc(-c2ccc3c(=O)n(Cc4cccc(C(=O)NC5COC5)c4)ccc3c2)ccn1 7.00 to 8.00
[2H]C([2H])([2H])NC(=O)c1cc(F)cc([C@@H](C)n2cnc3cc(-c4cn[nH]c4C(F)(F)F)ccc3c2=O)c1 > 8.00

Ask: What measured pIC50 goes with `Cn1nccc1-c1ccc2c(=O)n(Cc3cccc(C(=O)N[C@H]4CC[C@@H](O)CC4)c3)cnc2c1` ?
Result: > 8.00

Ask: What measured pIC50 goes with `CNC(=O)c1cccc(Cn2cc(CCN(C)C)c3cc(-c4cn[nH]c4C(F)(F)F)ccc3c2=O)c1` ?
Result: > 8.00

Ask: What measured pIC50 goes with `Cc1nocc1-c1ccc2c(=O)n(Cc3cccc(C(=O)NCC4COC4)c3)ccc2c1` ?
Result: > 8.00

Ask: What measured pIC50 goes with `O=C(N[C@H]1C[C@@H](O)C1)c1cc(F)cc(Cn2ccc3cc(N4CCOCC4)ccc3c2=O)c1` ?
Result: 6.30 to 7.00

Ask: What measured pIC50 goes with `Cn1nccc1-c1ccc2c(=O)n(Cc3cc(F)cc(C(=O)NC4CCNCC4)c3)ccc2c1` ?
Result: > 8.00

Ask: What measured pIC50 goes with `CNC(=O)c1cccc(Cn2ccc3cc(-c4ccoc4)ccc3c2=O)c1` ?
Result: < 6.30

Ask: What measured pIC50 goes with `Cn1nccc1-c1ccc2c(=O)n(Cc3cc(F)cc(C(=O)N[C@H]4CC[C@@H](O)CC4)c3)ccc2c1` ?
Result: 7.00 to 8.00

Ask: What measured pIC50 goes with `Cc1nocc1-c1ccc2c(=O)n(Cc3cccc(C(=O)NCCO)c3)ccc2c1` ?
Result: 7.00 to 8.00

Ask: What measured pIC50 goes with `O=C(NCC1CCNCC1)c1cccc(Cn2ccc3cc(N4CCOCC4)ccc3c2=O)c1` ?
Result: 7.00 to 8.00

Ask: What measured pIC50 goes with `CNC(=O)c1cccc([C@@H](C)n2cnc3cc(-c4ccnc(N)c4)ccc3c2=O)c1` ?
Result: 7.00 to 8.00

Ask: What measured pIC50 goes with `[2H]C([2H])([2H])NC(=O)c1cccc([C@@H](C)n2cnc3cc(-c4cn[nH]c4N)ccc3c2=O)c1` ?
Result: > 8.00

Ask: What measured pIC50 goes with `CNC(=O)c1cccc(Cn2ccc3cc(-c4cn[nH]c4C(F)(F)F)ncc3c2=O)c1` ?
Result: > 8.00

Ask: What measured pIC50 goes with `CNC(=O)c1cc(F)cc(Cn2cnc3cc(-c4cn[nH]c4C(F)(F)F)ccc3c2=O)c1` ?
Result: > 8.00

Ask: What measured pIC50 goes with `O=C(NCC1CCOCC1)c1cccc(Cn2cnc3cc(-c4cn[nH]c4C(F)(F)F)ccc3c2=O)c1` ?
Result: > 8.00

Taken from patent US12064426B2.
